Below is a list of entries, each paired with its recorded Cell viability (%) Calvarial cell value.
System: Osteoblasts (Calvarial cells)
conditionParameters: ICR, mouse, 72 h, 1 μM

molecule: CC(C)c1nccn1-c1ccc([N+](=O)[O-])c(Nc2ccc(N3CCOCC3)cc2)n1 [Compound 114]
scaleUnit: %
Cell viability (%) Calvarial cell: 92
--
molecule: CC(=O)c1cccc(Nc2nc(N3CCC(O)CC3)ccc2[N+](=O)[O-])c1 [Compound 99]
scaleUnit: %
Cell viability (%) Calvarial cell: 104
--
molecule: CC(C)Nc1ccc([N+](=O)[O-])c(Nc2ccc(-n3ccnc3)cc2)n1 [Compound 87]
scaleUnit: %
Cell viability (%) Calvarial cell: 101
--
molecule: COc1ccc(Nc2nc(N3CCOCC3)ccc2[N+](=O)[O-])cc1 [Compound 29]
scaleUnit: %
Cell viability (%) Calvarial cell: 93
--
molecule: CC(C)CNc1ccc([N+](=O)[O-])c(Nc2ccc(F)c(F)c2)n1 [Compound 124]
scaleUnit: %
Cell viability (%) Calvarial cell: 106
--
molecule: O=[N+]([O-])c1ccc(NCc2ccncc2)nc1Nc1ccc(F)c(F)c1 [Compound 131]
scaleUnit: %
Cell viability (%) Calvarial cell: 100
--
molecule: Nc1cccc(Nc2nc(NCc3ccncc3)ccc2[N+](=O)[O-])c1 [Compound 81]
scaleUnit: %
Cell viability (%) Calvarial cell: 100
--
molecule: CC(C)CNc1ccc([N+](=O)[O-])c(Nc2ccc(-c3csc(C4CCCCC4)n3)cc2)n1 [Compound 153]
scaleUnit: %
Cell viability (%) Calvarial cell: 107
--
molecule: CC(C)c1nccn1-c1ccc([N+](=O)[O-])c(Nc2ccc(-n3ccnc3)cc2)n1 [Compound 92]
scaleUnit: %
Cell viability (%) Calvarial cell: 101
--
molecule: CC(C)Nc1ccc([N+](=O)[O-])c(Nc2ccc(F)c(F)c2)n1 [Compound 123]
scaleUnit: %
Cell viability (%) Calvarial cell: 112
--
molecule: N#Cc1ccc(Nc2nc(N3CCC(O)CC3)ccc2[N+](=O)[O-])cc1 [Compound 47]
scaleUnit: %
Cell viability (%) Calvarial cell: 88
--
molecule: CC(C)c1nccn1-c1ccc([N+](=O)[O-])c(Nc2ccc(-c3csc(C4CCCCC4)n3)cc2)n1 [Compound 157]
scaleUnit: %
Cell viability (%) Calvarial cell: 115
--
molecule: Cc1ccc(Nc2nc(N3CCOCC3)ccc2[N+](=O)[O-])cc1 [Compound 14]
scaleUnit: %
Cell viability (%) Calvarial cell: 99
--
molecule: Nc1cccc(Nc2nc(NCc3cccnc3)ccc2[N+](=O)[O-])c1 [Compound 80]
scaleUnit: %
Cell viability (%) Calvarial cell: 102
--
molecule: Nc1ccc(Nc2nc(N3CCOCC3)ccc2[N+](=O)[O-])cc1 [Compound 64]
scaleUnit: %
Cell viability (%) Calvarial cell: 102
--
molecule: Cc1nc(-c2ccc(Nc3nc(NCc4cccnc4)ccc3[N+](=O)[O-])cc2)cs1 [Compound 138]
scaleUnit: %
Cell viability (%) Calvarial cell: 94
--
molecule: CSc1ccc(Nc2nc(NCCCn3ccnc3)ccc2[N+](=O)[O-])cc1 [Compound 55]
scaleUnit: %
Cell viability (%) Calvarial cell: 105
--
molecule: CC(C)(C)Nc1ccc([N+](=O)[O-])c(Nc2ccc(N)cc2)n1 [Compound 60]
scaleUnit: %
Cell viability (%) Calvarial cell: 119
--
molecule: Cc1nc(-c2ccc(Nc3nc(-n4ccnc4C(C)C)ccc3[N+](=O)[O-])cc2)cs1 [Compound 137]
scaleUnit: %
Cell viability (%) Calvarial cell: 92
--
molecule: CC(C)Nc1ccc([N+](=O)[O-])c(Nc2cccc(N)c2)n1 [Compound 71]
scaleUnit: %
Cell viability (%) Calvarial cell: 114
--
molecule: O=[N+]([O-])c1ccc(N2CCNCC2)nc1Nc1ccc(N2CCOCC2)cc1 [Compound 120]
scaleUnit: %
Cell viability (%) Calvarial cell: 94
--
molecule: Cc1nc(-c2ccc(Nc3nc(NCC(C)C)ccc3[N+](=O)[O-])cc2)cs1 [Compound 134]
scaleUnit: %
Cell viability (%) Calvarial cell: 93
--
molecule: COc1ccc(Nc2nc(NCC(C)C)ccc2[N+](=O)[O-])cc1 [Compound 17]
scaleUnit: %
Cell viability (%) Calvarial cell: 96
--
molecule: CC(=O)c1cccc(Nc2nc(NCC(C)C)ccc2[N+](=O)[O-])c1 [Compound 98]
scaleUnit: %
Cell viability (%) Calvarial cell: 92
--
molecule: CN1CCN(c2ccc([N+](=O)[O-])c(Nc3ccc(C(C)(C)C)cc3)n2)CC1 [Compound 41]
scaleUnit: %
Cell viability (%) Calvarial cell: 85
--
molecule: Nc1cccc(Nc2nc(NCCCn3ccnc3)ccc2[N+](=O)[O-])c1 [Compound 82]
scaleUnit: %
Cell viability (%) Calvarial cell: 106
--
molecule: Cc1ccc(Nc2nc(N3CCN(C)CC3)ccc2[N+](=O)[O-])cc1 [Compound 11]
scaleUnit: %
Cell viability (%) Calvarial cell: 103
--
molecule: CNc1ccc([N+](=O)[O-])c(Nc2ccc(OC)cc2)n1 [Compound 15]
scaleUnit: %
Cell viability (%) Calvarial cell: 100
--
molecule: CC(C)(C)c1ccc(Nc2nc(N3CCC(O)CC3)ccc2[N+](=O)[O-])cc1 [Compound 34]
scaleUnit: %
Cell viability (%) Calvarial cell: 97
--
molecule: CC(C)CNc1ccc([N+](=O)[O-])c(Nc2cccc(N)c2)n1 [Compound 72]
scaleUnit: %
Cell viability (%) Calvarial cell: 106
--
molecule: CNc1ccc([N+](=O)[O-])c(Nc2cccc(C(C)=O)c2)n1 [Compound 96]
scaleUnit: %
Cell viability (%) Calvarial cell: 90
--
molecule: Cc1ccc(Nc2nc(NCCc3cccnc3)ccc2[N+](=O)[O-])cc1 [Compound 10]
scaleUnit: %
Cell viability (%) Calvarial cell: 116
--
molecule: O=[N+]([O-])c1ccc(N2CCC(O)CC2)nc1Nc1ccc(F)c(F)c1 [Compound 126]
scaleUnit: %
Cell viability (%) Calvarial cell: 95
--
molecule: O=[N+]([O-])c1ccc(NCc2ccncc2)nc1Nc1ccc(-n2ccnc2)cc1 [Compound 94]
scaleUnit: %
Cell viability (%) Calvarial cell: 85
--
molecule: CNc1ccc([N+](=O)[O-])c(Nc2ccc(-c3csc(C)n3)cc2)n1 [Compound 132]
scaleUnit: %
Cell viability (%) Calvarial cell: 101
